Give measured HepSE_cholelithiasis for each item. Keep answers brief.
# Test system: Hepatotoxicity
# test-settings: Liver
No unit in the answer, only the number.

Query block: Please tell me: HepSE_cholelithiasis of CC(C)(C(=O)c1cccnc1)c1cccnc1 [METYRAPONE] , system Hepatotoxicity?
Result block: 0

Query block: // lookup HepSE_cholelithiasis | system=Hepatotoxicity | key= CN(C)CCOC(c1ccccc1)c1ccccc1 [DIPHENHYDRAMINE]
Result block: 0

Query block: Could you share what HepSE_cholelithiasis was measured for CN1CC[C@]23c4c5ccc(O)c4O[C@H]2[C@@H](O)C=C[C@H]3[C@H]1C5 [MORPHINE] , tested on Hepatotoxicity?
Result block: 0

Query block: Request - read-out HepSE_cholelithiasis | tested on Hepatotoxicity | compound CC(C)(C)NC(=O)[C@@H]1C[C@@H]2CCCC[C@@H]2CN1C[C@@H](O)[C@H](Cc1ccccc1)NC(=O)[C@H](CC(N)=O)NC(=O)c1ccc2ccccc2n1
Result block: 1

Query block: Value wanted: HepSE_cholelithiasis (Hepatotoxicity) of entry CC(C)c1c(C(=O)Nc2ccccc2)c(-c2ccccc2)c(-c2ccc(F)cc2)n1CC[C@@H](O)C[C@@H](O)CC(=O)O [ATORVASTATIN]
Result block: 0

Query block: Which measured HepSE_cholelithiasis belongs to CCOC(=O)N1CCC(=C2c3ccc(Cl)cc3CCc3cccnc32)CC1 [LORATADINE] , tested on Hepatotoxicity?
Result block: 0

Query block: What HepSE_cholelithiasis appears in the records for this compound with Hepatotoxicity? CNCCC=C1c2ccccc2CCc2ccccc21 [NORTRIPTYLINE]
Result block: 0

Query block: What measured HepSE_cholelithiasis is associated with Cc1ccc(C(=O)c2cc(O)c(O)c([N+](=O)[O-])c2)cc1 [TOLCAPONE] on Hepatotoxicity?
Result block: 1

* * *

Would you mind telling me the reported HepSE_Combined Scores of each entry?
# Test system: Hepatotoxicity
Lab note: jot the number down without any unit.

Query block: Please give the measured HepSE_Combined Scores for this compound: COc1ccccc1OCCNCC(O)COc1cccc2[nH]c3ccccc3c12 (stereo not given)
Result block: 1

Query block: Need HepSE_Combined Scores, item O=C1Nc2ccc(Cl)cc2[C@@](C#CC2CC2)(C(F)(F)F)O1
Result block: 4

Query block: For CC(C)[C@H]1CC[C@H](C(=O)N[C@H](Cc2ccccc2)C(=O)O)CC1 [NATEGLINIDE] , what is its reported HepSE_Combined Scores?
Result block: 3

Query block: Request the reported HepSE_Combined Scores associated with NC(=O)C(c1ccccc1)(c1ccccc1)[C@@H]1CCN(CCc2ccc3c(c2)CCO3)C1
Result block: 0

Query block: Give its HepSE_Combined Scores value. Item: Cc1ncc([N+](=O)[O-])n1CCO
Result block: 1

* * *

# Hepatotoxicity: HepSE_cirrhosis values follow
Could you keep your reply to the number by itself?

Query block: Name the reported HepSE_cirrhosis value associated with the compound COc1cc2nc(N3CCN(C(=O)C4COc5ccccc5O4)CC3)nc(N)c2cc1OC (centres undefined) [DOXAZOSIN]
Result block: 0

Query block: # HepSE_cirrhosis lookup, item [H]/N=C(\N/C(=N/[H])NCCCCCCNC(=N)NC(=N)Nc1ccc(Cl)cc1)Nc1ccc(Cl)cc1 [CHLORHEXIDINE]
Result block: 0

Query block: Record request: HepSE_cirrhosis value, item Cc1cc2c(s1)Nc1ccccc1N=C2N1CCN(C)CC1 [OLANZAPINE]
Result block: 0

Query block: Name the reported HepSE_cirrhosis value associated with the compound CCc1nc(N)nc(N)c1-c1ccc(Cl)cc1 [PYRIMETHAMINE]
Result block: 0

Query block: What value of HepSE_cirrhosis has been recorded for this entry: CCC[C@@H]1C[C@@H](C(=O)N[C@@H]([C@H]2O[C@H](SC)[C@H](O)[C@@H](O)[C@H]2O)[C@@H](C)O)N(C)C1 [LINCOMYCIN]
Result block: 0

Query block: // HepSE_cirrhosis lookup, key: FC(F)(F)C(Cl)Br (centres undefined) [HALOTHANE]
Result block: 0

Query block: Given the compound CC(C(=O)O)c1cccc(Oc2ccccc2)c1 (centres undefined) [FENOPROFEN] , what is its reported HepSE_cirrhosis?
Result block: 0

Query block: For CN1CCN2c3ncccc3Cc3ccccc3C2C1 (centres undefined) [MIRTAZAPINE] , what is its reported HepSE_cirrhosis?
Result block: 1

Query block: Param item = COc1c2occc2cc2ccc(=O)oc12 [METHOXSALEN] ; retrieve measured HepSE_cirrhosis.
Result block: 0

* * *

readout: HepSE_hepatic failure

Query block: API: value(readout=HepSE_hepatic failure, system=Hepatotoxicity) for record Cc1cc(C(=O)NNCc2ccccc2)no1
Result block: 0

Query block: Kindly state the measured HepSE_hepatic failure obtained for Oc1ccc(C2CNCCc3c2cc(O)c(O)c3Cl)cc1 (centres undefined) with Hepatotoxicity.
Result block: 0

Query block: Kindly state the measured HepSE_hepatic failure obtained for N#Cc1cc(NC(=O)C(=O)O)c(Cl)c(NC(=O)C(=O)O)c1 [LODOXAMIDE] with Hepatotoxicity.
Result block: 0

Query block: For Hepatotoxicity, provide HepSE_hepatic failure of O=C(CO)[C@@H](O)[C@@H](O)COP(=O)(O)O please.
Result block: 0

Query block: Recorded HepSE_hepatic failure for CCC[C@@H]1C[C@@H](C(=O)N[C@@H]([C@H]2O[C@H](SC)[C@H](O)[C@@H](O)[C@H]2O)[C@H](C)Cl)N(C)C1 with Hepatotoxicity, please?
Result block: 0

Query block: Notebook entry, Hepatotoxicity assay: HepSE_hepatic failure of NS(=O)(=O)Cc1noc2ccccc12 [ZONISAMIDE] = ?
Result block: 0

Query block: Lab note: need HepSE_hepatic failure for CCOCCn1c(N2CCCN(C)CC2)nc2ccccc21 on Hepatotoxicity, anyone have it?
Result block: 0

Query block: Recall the recorded HepSE_hepatic failure for CN1CCN(C(=O)OC2c3nccnc3C(=O)N2c2ccc(Cl)cn2)CC1 (centres undefined) with Hepatotoxicity and state it.
Result block: 0

Query block: # query: HepSE_hepatic failure | item [H]/N=C(\N/C(=N/[H])NCCCCCCNC(=N)NC(=N)Nc1ccc(Cl)cc1)Nc1ccc(Cl)cc1 | system: Hepatotoxicity
Result block: 0

* * *

# Test system: Hepatotoxicity
# test-settings: Liver
readout: DILI positive/negative
Write the number on its own, no unit after it.

Query block: Entry CCN(CC)Cc1cc(Nc2ccnc3cc(Cl)ccc23)ccc1O.Cl.Cl.Cl , system Hepatotoxicity: what DILI positive/negative was measured?
Result block: 1

Query block: # value lookup — system Hepatotoxicity, readout DILI positive/negative, item Cc1ncc(C[n+]2csc(CCO)c2C)c(N)n1 [THIAMINE ION]
Result block: 0

Query block: Fill in the recorded DILI positive/negative for this compound, with Hepatotoxicity as test system: Cl.Cl.OCCN1CCN(CC/C=C2/c3ccccc3Sc3ccc(C(F)(F)F)cc32)CC1
Result block: 0

Query block: Hi! What's the reported DILI positive/negative for O=C(OCC(O)CO)c1ccccc1Nc1ccnc2cc(Cl)ccc12 (centres undefined) [GLAFENINE] on Hepatotoxicity?
Result block: 1

Query block: Entry Oc1ncc(N(CCCl)CCCl)c(O)n1 [URACIL MUSTARD] , system Hepatotoxicity: what DILI positive/negative was measured?
Result block: 1

Query block: What DILI positive/negative appears in the records for this compound with Hepatotoxicity? CCCCC1C(=O)N(c2ccccc2)N(c2ccccc2)C1=O [PHENYLBUTAZONE]
Result block: 1

Query block: Form field - read-out: DILI positive/negative; system: Hepatotoxicity; submitted item: Nc1ncn([C@@H]2O[C@H](CO)[C@@H](O)[C@H]2O)c(=O)n1 [AZACITIDINE]
Result block: 1

Query block: Hi! What's the reported DILI positive/negative for CS(=O)(=O)Nc1ccc([N+](=O)[O-])cc1Oc1ccccc1 [NIMESULIDE] on Hepatotoxicity?
Result block: 1

Query block: Form field - read-out: DILI positive/negative; system: Hepatotoxicity; submitted item: O=S(=O)(O)O.Oc1cccc2cccnc12.Oc1cccc2cccnc12 [OXYQUINOLINE SULFATE]
Result block: 1

* * *

readout: HepSE_liver function tests abnormal
Number only, please.

Query block: Hepatotoxicity / HepSE_liver function tests abnormal / COc1ccc(C(CN(C)C)C2(O)CCCCC2)cc1 (centres undefined) : value?
Result block: 0

Query block: Observed HepSE_liver function tests abnormal on Hepatotoxicity for O.O=P(O)(O)C(O)(Cn1ccnc1)P(=O)(O)O , please.
Result block: 1

Query block: What reported HepSE_liver function tests abnormal corresponds to CC1(C)S[C@@H]2[C@H](NC(=O)C(C(=O)Oc3ccc4c(c3)CCC4)c3ccccc3)C(=O)N2[C@H]1C(=O)[O-].[Na+] (some centres undefined) [CARBENICILLIN INDANYL SODIUM] on Hepatotoxicity?
Result block: 0

Query block: Param readout = HepSE_liver function tests abnormal; param system = Hepatotoxicity; param query = Nc1ccn([C@@H]2O[C@H](CO)[C@@H](O)C2(F)F)c(=O)n1 ; response: value
Result block: 0
